biological target: Alpha-bungarotoxin (Bungarus multicinctus); assay: compounds binding labelled alpha-BTX control protein – biochemical, small-molecule microarray, Alexa647 label, 635/667 nm fluorescence, artefact control for SMM control protein annotation, profiling panel (AID 1117); details: alpha-BTX-A647 binding fluorescence, higher = more signal
Assign composite z-score to each entry below.
Give bare numbers.

# count of solved cases: 2
| Molecule | composite z-score |
| --- | --- |
| COCCOC(=O)N1C(=O)[C@@]2(c3cc(C#Cc4ccc(OC)cc4)ccc31)[C@H](C(=O)N1CCc3cc(OC)c(OC)cc3C1)[C@H]1C(=O)O[C@H](c3ccccc3)[C@H](c3ccccc3)N1[C@@H]2c1ccc(O)cc1 | 1.78 |
| COC(=O)C(CC#Cc1ccc2c(c1)[C@]1(C(=O)N2)[C@H](C(=O)N2CCc3cc(OC)c(OC)cc3C2)[C@H]2C(=O)O[C@H](c3ccccc3)[C@H](c3ccccc3)N2[C@@H]1c1ccc(O)cc1)C(=O)OC | 1.12 |

Now for another entry.
Prompt line: Supply reported composite z-score belonging to this compound: COc1ccc(C(=O)Nc2ccc(CN3C(=O)[C@@]4(O[C@@H](CC(=O)N5Cc6ccccc6C[C@H]5CO)[C@H]([Si](C)(C)c5ccc(OC)cc5)[C@H]4C)c4ccccc43)cc2)cc1
Response line: 1.3

----------
tested on: Inhibin beta A chain (activin A); assay: small molecules binding activin A – biochemical, small-molecule microarray, 635 nm fluorescence scan, primary screen (AID 1107); conditions: INHBA, higher = more signal;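 further: mouse activin A protein probed at 4.33 µg/mL on printed slides; score merges bound-protein fluorescence near 667 nm with spot signal-to-noise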
Measured endpoint: composite z-score
Give bare numbers.

# count of solved cases: 3
| Molecule | composite z-score |
| --- | --- |
| CCCC=C(CCC)[C@@H](NC(=O)Cc1ccccc1)c1ccc(C(=O)OC)cc1 | 1.26 |
| C=C(CCCC)/C(=C/C[C@@H](OC(=O)c1ccncc1)c1ccccc1OCCO)c1cc(C(=O)OC)ccc1OC | 0.851 |
| NC(=O)NCC#Cc1ccc2c(c1)[C@]1(C(=O)N2)[C@H](c2ccc(OCCO)cc2)N2[C@H](c3ccccc3)[C@H](c3ccccc3)OC(=O)[C@H]2[C@@H]1C(=O)N1CCN(c2ncccn2)CC1 | 1.29 |

Now for another entry.
Prompt line: GET composite z-score where system = Inhibin beta A chain (activin A) and item = CC(C)c1ccc(NN2C(C(O)c3cccs3)C=CC3C(=O)N(c4ccccc4)C(=O)C32)cc1 (centres undefined)
Response line: 0.975

----------
target: Calmodulin-1 (Homo sapiens) (UniProt P0DP23); assay: small molecules binding calmodulin-1 with EGTA – biochemical, small-molecule microarray, Cy5-labelled CALM1, profiling panel (AID 1111); conditions: Cy5-CALM1 binding fluorescence, higher = more signal;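 further: labelled calmodulin applied in Tris saline Tween buffer holding calcium plus EGTA and DTT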
Measured endpoint: composite z-score

| Compound | System name | Experimental value |
| --- | --- | --- |
| O=C1O[C@@H](c2ccccc2)[C@@H](c2ccccc2)N2[C@@H](c3ccc(O)cc3)[C@]3(C(=O)Nc4ccc(C#CC5(O)CCCCCC5)cc43)[C@@H](C(=O)N3CCN(c4ncccn4)CC3)[C@H]12 | Calmodulin-1 (Homo sapiens) (UniProt P0DP23) | 1.03 |

Please go through the list and note composite z-score for each compound.
1. CCCC=C(CCC)[C@@H](NC(=O)Cc1ccccc1)c1ccc(C(=O)OC)cc1
2. Cc1ccc(N2C(=O)c3ccccc3[C@](C)(C(=O)NC(C)C)[C@@H]2c2ccc(CO)cc2)nc1

Response line:
1.22
-1.12

----------
assay: probe aWnt5a binding to arrayed compounds – biochemical, biotinylated probe, 635/667 nm fluorescence, primary screen (AID 1113); settings: small-molecule microarray, higher = more signal;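 further: score merges 667 nm fluorescence intensity with signal-to-noise per printed feature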
Respond with 1.0 for composite z-score values of -0.08 and above, 0.0 for values below.

Here are 3 compounds together with their reported answers.
| Compound | Qualitative label |
| --- | --- |
| O=C1NC(=O)C2C1C=CC(C(O)c1ccc3c(c1)OCO3)N2Nc1ccc(Cl)cc1Cl (configuration not stated) | 0.0 |
| CN1C(=O)C2C=CC(C(O)COCc3ccccc3)N(Nc3ccccc3)C2C1=O (configuration not stated) | 1.0 |
| COc1ccc(CCNC(=O)[C@@H]2c3ccccc3C(=O)N(Cc3ccccc3)[C@H]2c2ccc(CO)cc2)cc1 | 1.0 |

Prompt line: In plain terms: is recorded composite z-score at least -0.08 for COCCCNC(=O)[C@@]1(Cc2ccccc2I)c2ccccc2C(=O)N(Cc2ccccc2Cl)[C@H]1c1ccc(CO)cc1 ?
Response line: 1.0

Prompt line: In plain terms: is recorded composite z-score at least -0.08 for C[N+](C)(C)CCCCCCNC(=O)[C@H]1C[C@H]2C(=O)N3CCC[C@H]3C(=O)N2[C@H]1c1cccc(OCCO)c1 ?
Response line: 0.0

Prompt line: In plain terms: is recorded composite z-score at least -0.08 for C=CCOC(=O)[C@H]1[C@@H]2C(=O)O[C@@H](c3ccccc3)[C@@H](c3ccccc3)N2[C@@H](c2ccc(OCCOC(=O)[C@H]3C[C@H]4C(=O)N[C@@H](CCCCN(C)C)C(=O)N4[C@H]3c3ccc(O)cc3)cc2)[C@]12C(=O)Nc1ccccc12 ?
Response line: 1.0

Prompt line: In plain terms: is recorded composite z-score at least -0.08 for O=C1CSC(c2cccc([N+](=O)[O-])c2)N1c1ccccc1 (configuration not stated) ?
Response line: 0.0

----------
biological target: Follistatin-related protein 3 (Homo sapiens) (UniProt O95633); experiment: compounds binding follistatin-related protein 3 – biochemical, small-molecule microarray, 635 nm fluorescence, primary screen (AID 1105); conditions: FSTL3 binding, higher = more signal;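 further: score merges emission near 667 nm and signal to noise per printed spot across three slides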
Sequence (O95633 whole entry, looked up): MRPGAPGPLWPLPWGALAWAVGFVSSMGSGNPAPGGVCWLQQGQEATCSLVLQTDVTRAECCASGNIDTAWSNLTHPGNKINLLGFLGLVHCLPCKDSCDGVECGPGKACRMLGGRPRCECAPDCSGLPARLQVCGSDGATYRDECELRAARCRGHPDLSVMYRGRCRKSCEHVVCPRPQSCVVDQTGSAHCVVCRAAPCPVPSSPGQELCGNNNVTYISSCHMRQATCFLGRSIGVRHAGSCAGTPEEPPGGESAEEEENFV
Respond with satisfied for composite z-score values of 0.3 and above, not satisfied for values below.

| Molecule | System name | Qualitative label |
| --- | --- | --- |
| COc1cc(C(O)C2C=CC3C(=O)N(C)C(=O)C3N2NC(=O)OC(C)(C)C)cc(OC)c1OC (stereo not drawn) | Follistatin-related protein 3 (Homo sapiens) (UniProt O95633) | not satisfied |
| CN1C(=O)C2C=CC(C(O)C3CCCCC3)N(N(c3ccccc3)c3ccccc3)C2C1=O (stereo not drawn) | Follistatin-related protein 3 (Homo sapiens) (UniProt O95633) | not satisfied |
| O=C1O[C@H](c2ccccc2)[C@H](c2ccccc2)N2[C@H]1[C@@H](C(=O)NC[C@H](O)c1ccccc1)[C@]1(C(=O)Nc3ccccc31)[C@H]2c1ccccc1OCCO | Follistatin-related protein 3 (Homo sapiens) (UniProt O95633) | not satisfied |

Prompt line: In plain terms: is recorded composite z-score at least 0.3 for C#CCNS(=O)(=O)N(C)C ?
Response line: satisfied

Prompt line: In plain terms: is recorded composite z-score at least 0.3 for COc1ccc([Si](C)(C)[C@H]2[C@H](CCn3cc(CCO)nn3)O[C@@]3(C(=O)N(Cc4cccc(N5C(=O)c6cccc7cccc5c67)c4)c4ccccc43)[C@@H]2C)cc1 ?
Response line: satisfied

Prompt line: In plain terms: is recorded composite z-score at least 0.3 for [N-]=[N+]=NCc1ccccc1C[C@]1(C(=O)NCCN2CCOCC2)N=C(c2ccc(OCCCO)cc2)O[C@H]1c1ccccc1 ?
Response line: not satisfied

Prompt line: In plain terms: is recorded composite z-score at least 0.3 for C=CCNC(=O)[C@H]1[C@@H]2C(=O)O[C@@H](c3ccccc3)[C@@H](c3ccccc3)N2[C@@H](c2ccc(O)cc2)[C@]12C(=O)N(C(=O)OCCOC)c1ccc(C#CC3(O)CCCCCC3)cc12 ?
Response line: satisfied

Prompt line: In plain terms: is recorded composite z-score at least 0.3 for CO[C@H]1O[C@H](CO)[C@@H](OC(=O)c2ccc(Br)cc2)[C@@H]2OC(=O)[C@H](Cc3cccc(Br)c3)C/C=C/C[C@@H](Cc3cccc(Br)c3)C(=O)O[C@@H]12 ?
Response line: satisfied

Prompt line: In plain terms: is recorded composite z-score at least 0.3 for O=C1O[C@@H](c2ccccc2)[C@@H](c2ccccc2)N2[C@@H](c3ccc(O)cc3)[C@]3(C(=O)Nc4ccc(C#CC5(O)CCCCCC5)cc43)[C@@H](C(=O)N3CCN(c4ncccn4)CC3)[C@H]12 ?
Response line: satisfied

Prompt line: In plain terms: is recorded composite z-score at least 0.3 for CC(C)C[C@@H]1NC(=O)[C@@]23C(=O)N[C@@H](Cc4ccccc4)C2[C@H](C)[C@@]2(C)O[C@H]2C3/C=C/C/C=C\CNC(=O)[C@@H]2CCCN2C1=O (stereo partly drawn) ?
Response line: satisfied

----------
experiment: probe aShh binding to arrayed compounds – biochemical, biotinylated probe, 635/667 nm fluorescence, primary screen (AID 1114); details: small-molecule microarray, higher = more signal;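 further: probe is biotin-labelled aShh protein from a stem cell growth factor screen; measures binding of labelled protein to compounds printed on the slide; score merges feature fluorescence at 667 nm with signal-to-noise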
Assign composite z-score to each entry below.
One number for each entry.

# count of solved cases: 3
| Compound | composite z-score |
| --- | --- |
| CCOc1cc(C(O)C2C=CC3C(=O)NC(=O)C3N2Nc2ccccn2)ccc1O (centres undefined) | -0.117 |
| Cc1ccc(-c2cccc(=O)o2)cc1 | -0.138 |
| COc1ccc(C#Cc2ccc3c(c2)[C@]2(C(=O)N3)[C@H](C(N)=O)[C@H]3C(=O)O[C@H](c4ccccc4)[C@H](c4ccccc4)N3[C@@H]2c2ccc(O)cc2)cc1 | -0.0904 |

Please go through the list and note composite z-score for each compound.
1. CN(C)C(=O)[C@@]1(CCS(=O)(=O)c2ccccc2)N=C(c2ccc(OCCCO)cc2)O[C@H]1c1ccccc1CN=[N+]=[N-]
2. COCCCNC(=O)[C@@]1(Cc2ccccc2CN=[N+]=[N-])N=C(c2ccc(OCCCO)cc2)O[C@H]1c1ccccc1N=[N+]=[N-]
3. CC(C)CCC[C@@H](C)[C@H]1CC[C@@]2(C)C3=C(CC[C@]12C)[C@@]1(C)CC[C@H](OC(=O)c2ccc(N)cc2)C(C)(C)C1CC3 (some centres undefined)

Response line:
0.108
0.291
0.768

Please go through the list and note composite z-score for each compound.
1. C=CCNC(=O)[C@H]1[C@@H]2C(=O)O[C@@H](c3ccccc3)[C@@H](c3ccccc3)N2[C@@H](c2ccc(O)cc2)[C@]12C(=O)N(C(=O)OCCOC)c1ccc(C#CC3(O)CCCCCC3)cc12
2. CC[C@@H]1[C@@H]2C3C(=O)N(CC)C(=O)C3CC(=O)[C@@H]2[C@H](c2ccc(C)cc2)N1S(=O)(=O)c1ccc(C)cc1 (some centres undefined)

Response line:
1. 0.0469
2. 0.232

Please go through the list and note composite z-score for each compound.
1. COc1ccc([Si](C)(C)[C@@H]2[C@@H](CC(=O)N3Cc4ccccc4C[C@H]3CO)O[C@]3(C(=O)N(Cc4cccc(N5CCCCC5=O)c4)c4ccccc43)[C@H]2C)cc1
2. CC(C)(C)OC(=O)CC[C@@]1(C(=O)N2CCCCC2)N=C(c2ccc(OCCCO)cc2)O[C@@H]1c1ccccc1N=[N+]=[N-]
3. C[N+](C)(C)CCCCCCNC(=O)[C@@H]1C[C@@H]2C(=O)NCC(=O)N2[C@@H]1c1cccc(OCCO)c1
4. CCOC(=O)C1=CC[C@@H](c2ccc(N(CC)CC)cc2)N(S(=O)(=O)c2ccc(C)cc2)[C@H]1c1ccc([N+](=O)[O-])cc1
5. CN1C(=O)C2C=CC(C(O)c3cccc4ccccc34)N(NC(=O)OC(C)(C)C)C2C1=O (centres undefined)
6. CCN(CC)c1ccc(N2CC=CC34O[C@@H]5/C=C\CCCOC(=O)C5[C@H]3C(=O)N(CCCCCO)[C@@H]4C2=O)cc1 (some centres undefined)

Response line:
1. 0.0557
2. 0.0638
3. -0.333
4. -0.0035
5. -0.0813
6. -0.221
